The reported numbers originate from patent US8541363B2.

In this section, each of the compounds is paired with its reported IC50.
target: UniProt:P08176; assay: Der p 1 enzyme activity assay (FRET fluorogenic substrate); assay type: biochemical; settings: threshold stated in text; read-out: Der p 1 IC50
Sequence (P08176 99-320): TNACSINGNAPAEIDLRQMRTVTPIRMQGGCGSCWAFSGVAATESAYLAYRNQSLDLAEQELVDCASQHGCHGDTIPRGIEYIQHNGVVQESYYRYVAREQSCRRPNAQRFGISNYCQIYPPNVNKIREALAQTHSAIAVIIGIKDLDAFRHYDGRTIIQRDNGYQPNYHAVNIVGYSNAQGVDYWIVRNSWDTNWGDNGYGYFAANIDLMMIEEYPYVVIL

Cc1cc(C(=O)N[C@H](C(=O)N[C@@H](C)C(=O)N[C@H](C(=O)C(N)=O)C(C)C)C(C)(C)C)[nH]n1	< 200 nM
CC(C)C(NC(=O)[C@H](C)NC(=O)[C@H](Cc1ccccc1)NC(=O)c1ccccc1)C(=O)C(=O)NCc1cccnc1 (stereo partly shown)	< 200 nM
CC(C)[C@H](NC(=O)[C@H](C)NC(=O)[C@@H](Cc1cccc(F)c1)NC(=O)c1ccccc1)C(=O)C(=O)NC1CCCCC1	< 200 nM
CC(C)C(NC(=O)[C@H](C)NC(=O)[C@H](Cc1ccccc1)NC(=O)c1ccccc1)C(=O)C(=O)NCc1ccncc1 (stereo partly shown)	< 200 nM
CC(C)[C@H](NC(=O)[C@H](C)NC(=O)[C@@H](NC(=O)c1ccccc1)C(C)(C)C)C(=O)C(=O)NCC(=O)N1CCOCC1	< 20 nM

Could you share which IC50 value was measured for CC(C)[C@H](NC(=O)[C@H](C)NC(=O)[C@@H](NC(=O)C1CC[N+](C)(C)CC1)C(C)(C)C)C(=O)C(=O)NC1CCCCC1 ?
< 20 nM

Could you share which IC50 value was measured for CC(C)[C@H](NC(=O)[C@H](C)NC(=O)[C@@H](NC(=O)c1ccccc1)C(C)(C)c1ccccc1)C(=O)C(=O)NCc1ccccc1 ?
< 200 nM

Could you share which IC50 value was measured for CC(C)[C@H](NC(=O)[C@H](C)NC(=O)[C@@H](Cc1ccccc1)NC(=O)c1ccc(-c2ccccc2)cc1)C(=O)C(=O)NC1CCCCC1 ?
< 200 nM

Could you share which IC50 value was measured for CC(C)[C@H](NC(=O)[C@H](C)NC(=O)[C@@H](NC(=O)N1CCN(C)CC1)C(C)(C)C)C(=O)C(=O)NCc1ccccc1 ?
< 200 nM

Could you share which IC50 value was measured for CC(C)[C@H](NC(=O)[C@H](C)NC(=O)[C@H](Cc1ccccc1)NC(=O)c1cccc2ccccc12)C(=O)C(=O)NCC(=O)N1CCN(C)CC1 ?
< 200 nM

Could you share which IC50 value was measured for CC(C)[C@H](NC(=O)[C@H](C)NC(=O)[C@@H](NC(=O)c1ccccc1)C(C)(C)C)C(=O)C(=O)NCc1ccc(OC(F)(F)F)cc1 ?
< 200 nM

Could you share which IC50 value was measured for CC(C)[C@H](NC(=O)[C@H](C)NC(=O)[C@H](Cc1ccc(N2CCN(C)CC2)cc1)NC(=O)c1ccccc1)C(=O)C(=O)NCc1ccccc1 ?
< 200 nM

Could you share which IC50 value was measured for C[C@H](NC(=O)[C@H](Cc1ccccc1)NC(=O)c1ccccc1)C(=O)NCC(=O)C(=O)NCc1ccccc1 ?
< 200 nM
